# target.entity: C5aR (Homo sapiens (Human), UniProt P21730)
# Sequence (P21730 whole entry): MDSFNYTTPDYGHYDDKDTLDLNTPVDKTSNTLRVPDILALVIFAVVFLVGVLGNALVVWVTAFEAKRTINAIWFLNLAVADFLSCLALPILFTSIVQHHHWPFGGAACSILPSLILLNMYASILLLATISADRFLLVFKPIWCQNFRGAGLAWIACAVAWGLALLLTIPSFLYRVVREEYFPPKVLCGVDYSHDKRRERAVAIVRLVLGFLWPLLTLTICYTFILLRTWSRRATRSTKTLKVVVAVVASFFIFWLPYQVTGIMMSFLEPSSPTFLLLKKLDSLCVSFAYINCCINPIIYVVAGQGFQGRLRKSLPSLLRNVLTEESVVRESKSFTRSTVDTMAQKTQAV
# assay.overview: Calcium mobilization (U937/C5aR or HEK293/C5aR cells, FLIPR)
# Assay type: cell-based
# run.parameters: agonist human C5a at EC80, FLIPR
pIC50: −log10 of the molar value.
measure: pIC50

> print(dat)
                                   compound   measurement
1  Cc1ccc(NC(=O)[C@H]2C[C@H]3CCC[C@H]3N(C(=O)c3c(C)cccc3F)[C@H]2c2ccc(NC3CCCC3)cc2)cn1 (racemic)  5.70 to 6.30
2  Cc1ccc(NC(=O)[C@H]2CCCN(S(=O)(=O)c3c(C)nn(C)c3C)[C@H]2c2ccc(NC3CCCC3)cc2)cc1C(F)(F)F        < 5.00
3  Cc1ccc(NC(=O)[C@H]2CCCN[C@H]2c2ccc(NC3CCCC3)cc2)cc1C(F)(F)F  5.00 to 5.70

---

# target.entity: C5aR (Homo sapiens (Human), UniProt P21730)
# assay.overview: Calcium mobilization (U937/C5aR or HEK293/C5aR cells, FLIPR)
# Assay type: cell-based
# run.parameters: agonist human C5a at EC80, FLIPR
pIC50: −log10 of the molar value.
Each entry below carries its recorded pIC50.
measure: pIC50

> print(dat)
                                    compound                             target.entity  measure   measurement
 1  Cc1ccc(NC(=O)[C@H]2CCCN[C@H]2c2ccc(N(c3nccc4ccccc34)C3CCCC3)cc2)cc1C(F)(F)F  C5aR (Homo sapiens (Human), UniProt P21730)    pIC50  5.00 to 5.70
 2  Cc1cccc(F)c1C(=O)N1[C@@H]2CCC[C@@H]2C[C@H](C(=O)Nc2ccc(F)c(F)c2)[C@@H]1c1ccc(NC2CCCC2)cc1 (relative stereo)  C5aR (Homo sapiens (Human), UniProt P21730)    pIC50  6.30 to 7.30
 3  Cc1ccc(NC(=O)C2C[C@@H]3CN(CC(F)(F)F)C[C@@H]3N(C(=O)c3c(C)cccc3F)C2c2ccc(NC3CCCC3)cc2)cc1C(F)(F)F (relative stereo)  C5aR (Homo sapiens (Human), UniProt P21730)    pIC50  5.00 to 5.70
 4  Cc1cccc(F)c1C(=O)N1C2CCC[C@@H]2C[C@H](C(=O)Nc2cnc(-n3nccn3)c(Cl)c2)[C@@H]1c1ccc(NC2CCCC2)cc1 (relative stereo)  C5aR (Homo sapiens (Human), UniProt P21730)    pIC50        < 5.00
 5  Cc1cccc(F)c1C(=O)N1C2CCC[C@@H]2C[C@H](C(=O)Nc2ccc3cccnc3c2)[C@@H]1c1ccc(NC2CCOCC2)cc1 (relative stereo)  C5aR (Homo sapiens (Human), UniProt P21730)    pIC50  6.30 to 7.30
 6  Cc1ccc(NC(=O)[C@H]2CCCN(c3ncnc4cnccc34)[C@H]2c2ccc(N(C(=O)OCc3ccccc3)C3CCCC3)cc2)cc1C(F)(F)F  C5aR (Homo sapiens (Human), UniProt P21730)    pIC50  5.00 to 5.70
 7  Cc1ccc(NC(=O)[C@H]2OCCN(C(=O)c3c(C)cccc3F)[C@H]2c2ccc(NC3CCCC3)cc2)cc1C(F)(F)F (relative stereo)  C5aR (Homo sapiens (Human), UniProt P21730)    pIC50  5.00 to 5.70
 8  Cc1cccc(F)c1C(=O)N1C(c2ccc(NC3CCCC3)cc2)C(C(=O)Nc2ccc3c(c2)CCNC3)C[C@@H]2CCC[C@@H]21 (relative stereo)  C5aR (Homo sapiens (Human), UniProt P21730)    pIC50  5.00 to 5.70
 9  Cc1ccc(NC(=O)[C@H]2CCCN(S(=O)(=O)c3ccccc3)[C@H]2c2ccc(NC3CCCC3)cc2)cc1C(F)(F)F  C5aR (Homo sapiens (Human), UniProt P21730)    pIC50        < 5.00
10  Cc1cccc(F)c1C(=O)N1C2CCCC2CC(C(=O)Nc2ccc3c(c2)CCN(C(=O)OC(C)(C)C)C3)C1c1ccc(NC2CCCC2)cc1 (stereo not drawn)  C5aR (Homo sapiens (Human), UniProt P21730)    pIC50  5.00 to 5.70
11  Cc1cccc(F)c1C(=O)N1[C@@H]2CCC[C@@H]2C[C@H](C(=O)Nc2ccc(N(C)C)cc2)[C@@H]1c1ccc(NC2CCOCC2)cc1  C5aR (Homo sapiens (Human), UniProt P21730)    pIC50  5.00 to 5.70
12  Cc1cccc(F)c1C(=O)N1[C@@H]2CCC[C@@H]2C[C@H](C(=O)Nc2ccc3c(cnn3C)c2)[C@@H]1c1ccc(NC2CCOCC2)cc1  C5aR (Homo sapiens (Human), UniProt P21730)    pIC50  5.70 to 6.30
